assay: Cytotoxicity against human KB/S cells after 72 hrs by MTT assay; type: functional, cell-based; conditions: Homo sapiens, 72 h
Property Label: pIC50
Quick note: pIC50 means taking -log10 of the concentration in moles per liter.

Recorded results for 3 compounds are shown here.
CC[C@@]12CC(C(=O)OC)=C3Nc4cc5c(cc4[C@@]34CCN(C[C@H]3O[C@H]31)[C@@H]24)[C@@H]1[C@H](O5)[C@@H](O)[C@@]2(CC)CC(C(=O)OC)=C3Nc4c(ccc(OC)c4O)[C@@]34CCN1[C@@H]24    7.00
CC[C@@]12CC(C(=O)OC)=C3N=C4C(=CC(=O)C(OC)=C4OC)[C@@]34CCN([C@@H]3c5cc6c(cc5O[C@@H]3[C@H]1O)NC1=C(C(=O)OC)C[C@]3(CC)[C@@H]5O[C@@H]5CN5CC[C@@]16[C@@H]53)[C@H]42    7.00
CC[C@]1(O)C[C@H]2CN(CCc3c([nH]c4ccccc34)[C@@](C(=O)OC)(c3cc4c(cc3OC)N(C=O)[C@H]3[C@@](O)(C(=O)OC)[C@H](OC(C)=O)[C@]5(CC)C=CCN6CC[C@]43[C@@H]65)C2)C1 [VINCRISTINE]    9.40

Now turn to the next compound.
If you can, please state the reported pIC50 value of CC[C@@]12C=C(C(=O)OC)C3=Nc4c(cc(O)c(OC)c4OC)[C@@]34CCN([C@@H]3c5cc6c(cc5O[C@@H]3[C@H]1O)NC1=C(C(=O)OC)C[C@]3(CC)[C@@H]5O[C@@H]5CN5CC[C@@]16[C@@H]53)[C@@H]24 .
5.96
